Catalogue of molecules with associated CR
System: mAb 4B1
Test: icELISA with mAb 4B1 (hybridoma supernatant), coating antigen imidacloprid-OVA
Type: binding, mouse
Conditions: mAb 4B1, cross-reactivity relative to imidacloprid
Method: Procedures for the immunization, cell fusion and clone selection were similar to those described in our previous publications, and indirect non-competitive and competitive ELISAs were sequentially used for hybridoma screening. […] Checkerboard titration was carried out by icELISAs with serial dilutions of the antibody and coating antigen (imidacloprid-OVA). […] The specificity and sensitivity were determined by icELISAs. […] Moreover, sensitivity (IC50) and CR to eight neonicotinoids were assessed by icELISAs.

CN/C(=N\[N+](=O)[O-])NCc1cnc(Cl)s1 | 4.9%
N#C/N=C1\SCCN1Cc1ccc(Cl)nc1 | 10.2%
CN1COCN(Cc2cnc(Cl)s2)/C1=N\[N+](=O)[O-] | <0.1%
C/C(=N\C#N)N(C)Cc1ccc(Cl)nc1 | 3.1%

mAb 4B1 assay, molecule `O=[N+]([O-])/N=C1\NCCN1Cc1cnc(Cl)s1` , recorded CR = 7.1%

Per the reported mAb 4B1 data, CN/C(=N/CC1CCOC1)N[N+](=O)[O-] (centres unmarked) has CR of <0.1%

Note to self: CR of `CCN(Cc1ccc(Cl)nc1)/C(=C/[N+](=O)[O-])NC` with mAb 4B1 was <0.1%

# value of CR, mAb 4B1, item `O=[N+]([O-])NC1=NCCN1Cc1ccc(Cl)nc1` = 100.0%
